Source: PubChem BioAssay AID1996

Assign solubility kinetic to each entry below.
EXPERIMENTAL_CONDITIONS: buffer; pH 7.4; 200.0 µM
Numbers only, in µg/mL.

Known results for molecules:
The recorded solubility kinetic for CC(C)Oc1ccc(CNC(=O)Oc2ccccc2)cc1 is 25.5

solubility kinetic for C=C(C)Cc1c(C)c(C#N)c2[nH]c3ccccc3n2c1=O is 2.9

So for O=C(Nc1nc2ccccc2s1)c1ccccc1 , the logged solubility kinetic turned out to be 3.1

Entry O=C(NCc1ccc2c(c1)OCO2)Nc1ccc([N+](=O)[O-])cc1 ; solubility kinetic = 0.9

# ---- query molecule ----
Kindly note the recorded solubility kinetic for O=C(COc1ccc2ccccc2c1)Nc1ccncc1 , which is 6.1

====

EXPERIMENTAL_CONDITIONS: buffer; pH 7.4; 200.0 µM
VALUE_KIND: solubility kinetic (µg/mL)
Numbers only, in µg/mL.

compound OC(CC#CCN1CCCC1)(c1ccccc1)c1ccccc1 , solubility kinetic observed: 36.7

GET /value?item= Cc1ccc(OCC(=O)NCCNC(=O)c2ccco2)cc1 &field=solubility kinetic returns 32.9

Could you tell me solubility kinetic for each of these compounds? They are listed below.
1. CN(Cc1ccccc1F)C(=O)CCCNC(=O)c1ccc(Cl)cc1
2. CCCn1c(=O)c2c(nc3n2CCCN3Cc2ccccc2)n(C)c1=O
3. Nc1nc(CCl)nc(N(c2ccccc2)c2ccccc2)n1
4. CCOc1ccc(S(=O)(=O)NCc2ccc3c(c2)OCO3)cc1C
5. CCCCCCCCCCOC(=O)NC1CCS(=O)(=O)C1 (configuration not stated)
6. Cc1ccc(C(=O)NC(=S)N(C)Cc2ccccc2)cc1

[out]
[32.4, 17.6, 7.5, 24.3, 1.1, 2]

====

EXPERIMENTAL_CONDITIONS: buffer; pH 7.4; 200.0 µM
Kind request: treat 40 µg/mL as inclusive, so solubility kinetic at 40 µg/mL or higher is Yes, anything lower is No.

Consider the following illustrative entries.
[in] Is solubility kinetic for Cc1sc2c(c1C)C(=O)/C(=C\Nc1ccccn1)S(=O)(=O)N2C at or above 40 µg/mL?
[out] No

[in] Quick check: does COc1cc2c3c(c1)C(C)CC(C)(C)N3C(=O)C2=O (stereo not drawn) have solubility kinetic greater than or equal to 40 µg/mL?
[out] No

[in] solubility kinetic >= 40 µg/mL for Cc1ccc(NC(=O)COc2cccc3c2OC(C)(C)C3)c(O)c1 ?
[out] No

[in] Could you verify whether the entry CCOC(=O)c1sc(=NC(=O)c2ccccc2)n(C)c1C shows solubility kinetic of no less than 40 µg/mL?
[out] No

[in] Identify whether the reported solubility kinetic of the following molecule is 40 µg/mL or greater: CC(C)(C)c1ccc(NC(=S)NCCc2ccccn2)cc1
[out] No

Continuing:
[in] Quick check: does COc1ccc(C(=O)NCCN2CCOCC2)cc1[N+](=O)[O-] have solubility kinetic greater than or equal to 40 µg/mL?
[out] Yes

[in] Dear colleague, could you confirm whether O=C(Nc1ccc(Cl)c([N+](=O)[O-])c1)c1ccco1 has solubility kinetic at or above 40 µg/mL?
[out] No

[in] # bool: solubility kinetic of Cl.Oc1ccc(Nc2ncnc3ccccc23)cc1 >= 40 µg/mL
[out] No

[in] Form field: solubility kinetic at least 40 µg/mL? Entry: CC(=O)NC(CC(=O)NCCc1ccccc1)c1ccccc1 (stereo not drawn)
[out] Yes

[in] Please tell me: is the molecule O=C(Nc1ccc(CN2CCS(=O)(=O)CC2)cc1)c1ccc(F)cc1 at or over 40 µg/mL in terms of solubility kinetic?
[out] No

[in] Form field: solubility kinetic at least 40 µg/mL? Entry: CC(C)c1ccc(N=Cc2c(O)n(C3CC3)c(=S)[nH]c2=O)cc1
[out] No

[in] API: above_or_equal(metric=solubility kinetic, cutoff=40 µg/mL) for item O=C1c2ccccc2C(=O)N1CC(O)COc1ccc(Cl)cc1 (stereo not drawn)
[out] No

[in] Is it the case that Cc1cc(O)c(N=Cc2cc3c(cc2[N+](=O)[O-])OCO3)cc1C has solubility kinetic reaching or exceeding 40 µg/mL?
[out] No

[in] Is reported solubility kinetic greater than or equal to 40 µg/mL here: COc1ccc(NC(=O)c2cccc(Cl)c2)c[n+]1[O-]
[out] Yes

====

EXPERIMENTAL_CONDITIONS: buffer; pH 7.4; 200.0 µM
Could you please report measured log10(solubility kinetic) for the items listed next?
For clarity, the numbers are log10 values of solubility kinetic expressed in µg/mL.

Here's what some known entries look like.
Lookup result for Cc1cccc(C)c1NC(=O)CN1C(=O)C(C)Oc2ccccc21 (stereo not given) ; measured log10(solubility kinetic): 1.06

The reported log10(solubility kinetic) of the compound CC1CCCN(c2c3c(nc4ccccc24)CCCC3)C1 (stereo not given) was -0.22

# log10(solubility kinetic) (compound: Nc1nc2ccc(C(=O)Nc3ccc(N4CCOCC4)cc3)cc2s1 ) is 0.94

Briefly, log10(solubility kinetic) measured for COc1ccccc1C1CCN(C(=O)c2cccc([N+](=O)[O-])c2)CC1 : 1.60

// batch mode: one log10(solubility kinetic) value per listed entry
1. NS(=O)(=O)c1ccc(C(=O)Nc2ccc(-c3nc4cccnc4s3)cc2)cc1
2. O=C(Nc1ccccc1)c1ccc(=O)n(Cc2cccc(Cl)c2)c1
3. CC(=O)n1c2ccccc2c2nc3ccccc3nc21
4. CCOCCCNC(=O)c1cc2c(=O)[nH]c3ccccc3c2s1
5. N#Cc1ccccc1NC(=O)COC(=O)c1cccs1
6. OC1(CC#CCN2CCCCC2)c2ccccc2-c2ccccc21
7. O=C(COc1ccc(F)c(Cl)c1)Nc1ccc(N2CCOCC2)cc1

[out]
1. 0.40
2. 1.34
3. 0.04
4. 0.23
5. 0.60
6. 1.63
7. 0.73

So, O=C(Cc1ccccc1)N1CCC(c2ccccc2)C1 (stereo not given) ? Its log10(solubility kinetic) was 1.59

====

EXPERIMENTAL_CONDITIONS: buffer; pH 7.4; 200.0 µM
VALUE_KIND: solubility kinetic (µg/mL)
Give bare numbers, in µg/mL.

Past entries and their recorded results:
Just so you know, measured solubility kinetic for CCOc1ccc(OCCCC(=O)N(C)CC(=O)Nc2ccccc2Br)cc1 came out at 5.6

Form field solubility kinetic, entry CCCCC(=O)NC(=S)Nc1ccc(NC(=O)C(C)C)c(OC)c1 : 5.4

Batch lookup, solubility kinetic per entry.
1. CCN(c1ccccc1)c1nc(C#N)nc(N(CC)c2ccccc2)n1
2. CCCNC(=O)c1cnc(-c2ccccc2)nc1-c1ccccc1

[out]
1. 0.9
2. 1

====

EXPERIMENTAL_CONDITIONS: buffer; pH 7.4; 200.0 µM
Please go through the items and note down their solubility kinetic.
Numbers only, in µg/mL.

Give solubility kinetic for each listed item.
1. Cc1ccsc1C(=O)OCC(=O)NC1CCCCC1C (stereo not drawn)
2. O=C(c1ccccc1SCc1ccccc1)N1CCOCC1
3. COc1cc(N2CCOCC2)ccc1C=C(C#N)C#N
4. CC(C)C(=O)NC(=S)Nc1ccc(S(=O)(=O)NC2CCCCC2)cc1
5. Cc1cc(C)c(OCCN2CCCC2)c(Cl)c1

[out]
1. 12
2. 45.9
3. 0.7
4. 1
5. 27.8

For each entry beneath this line, provide reported solubility kinetic.
1. COc1cccc(NC(=O)COc2ccc3c(c2)CCC3)c1
2. CC(C)c1ccc(C(=O)CN2C(=O)NC3(CCc4ccccc43)C2=O)cc1 (stereo not drawn)
3. Cc1cccc(-c2noc(CNC(=O)c3ccco3)n2)c1

[out]
1.3
7.1
42.5

Please give solubility kinetic for each item listed below.
1. COc1cccc(CC(=O)Nc2nc3c(s2)C(=O)CC(C)(C)C3)c1
2. COc1ccc(Cl)cc1/C=C/c1ccc2cccc(O)c2n1
3. Cc1cccc(OCCSc2nc3ccccc3n2CCC(=O)O)c1
4. CCOc1ccc(NC(=O)c2[nH]c(C)c(C(C)=O)c2C)cc1
5. COC(=O)c1c(NC(=O)CCC(=O)O)sc(Cc2ccccc2)c1C
6. O=C(Nc1ccccc1N1CCCCC1)c1ccc(Cl)cc1
7. O=C1NC2(CCCCCC2)C(=O)N1Cc1cccc([N+](=O)[O-])c1

[out]
1.8
0.8
53.4
3.4
48.7
1.5
32.1

Below are some compounds; for each one, tell me its solubility kinetic.
1. CC(=O)Nc1ccc(S(=O)(=O)N[C@@H](C)C(=O)OCC(=O)c2ccc(C)cc2)cc1
2. CC(=O)c1cccc(NC(=O)NC2CCCCCCC2)c1
3. N#C/C(=C\C=C\c1ccccc1)C(=O)N1CCCC1
4. COc1ccc(C(=O)NC(=S)Nc2cccnc2)cc1Cl

[out]
1. 37.7
2. 2.5
3. 7.3
4. 1.5

Kindly give each listed record's solubility kinetic.
1. CC(C)[C@H](NC(=O)C1CCCC1)c1nc2ccccc2[nH]1
2. CC(C)[C@H](NC(=O)c1ccccc1F)C(=O)NCCc1ccccc1
3. CN(CC(=O)Nc1sccc1C(N)=O)S(=O)(=O)c1ccc(Cl)cc1
4. O=c1c2ccccc2nc(Cc2cccc([N+](=O)[O-])c2)n1-c1ccc(O)cc1

[out]
9.9
26.4
8.7
47.8

Report solubility kinetic for every entry below.
1. CCCCON1C(=O)c2cccc3cccc(c23)C1=O
2. COc1cc(/C=N/c2oc(C)c(C)c2C#N)cc(Br)c1O
3. Cc1ccc(C(=O)NC(C(=O)Nc2ccccc2)c2ccccc2)cc1 (stereo not drawn)
4. CCOc1ccc(-n2c(=O)c3ccccc3c3ccccc3c2=O)cc1
5. CCCCOC(=O)C1=C(C)NC(=O)NC1c1cccc([N+](=O)[O-])c1 (stereo not drawn)

[out]
1. 8.8
2. 8
3. 1
4. 18
5. 12.3

# return solubility kinetic for each item in the list
1. Cc1cccc(C)c1OCCNC(=O)OCc1ccccc1
2. Cc1cc(C(=O)CCl)c(C)n1-c1ccon1

[out]
1: 15.8; 2: 33.7

Summary for this compound, NS(=O)(=O)c1ccc(CCNc2ccccc2[N+](=O)[O-])cc1 : solubility kinetic is 2.9
